Tested on: EKVX NSCLC
Assay: NCI tumour cell line growth inhibition, 48 h
Entry flag: YES if TGI reaches 4 µM; NO if it does not.

Exercise: Evaluate COc1cc(C(=O)O)ccc1NC(=O)[C@@H]1N[C@@H](CC(C)(C)C)[C@](C#N)(c2ccc(Cl)cc2F)[C@H]1c1cccc(Cl)c1F : TGI at minimum 4 µM?
Solution: YES

Exercise: Evaluate CN(C)CCNc1c([N+](=O)[O-])cc2c3c(cccc13)C(=O)N(CCN(C)C)C2=O : TGI at minimum 4 µM?
Solution: YES

Exercise: Evaluate O=C(CCc1ccc(O)c(O)c1)c1ccc(O)c(O)c1O : TGI at minimum 4 µM?
Solution: YES

Exercise: Evaluate CNC(=O)c1ccc(Nc2nc(OC3CCCC3)c3c(-c4ccc5nc(C)oc5c4)c[nH]c3n2)c(OC)c1 : TGI at minimum 4 µM?
Solution: YES

Exercise: Evaluate Cc1c(Cl)c(=O)oc2cc(OCC(=O)c3ccccc3)ccc12 : TGI at minimum 4 µM?
Solution: YES

Exercise: Evaluate CCN(CC)CCCN1C(=O)c2c(c(C)c3c(oc4cc(O)ccc43)c2C)C1=O : TGI at minimum 4 µM?
Solution: NO

Exercise: Evaluate CC1=C([Se]CC(OC(=O)[C@@H](CSSC(C)(C)C)NC(=O)C(C)(C)C)C(=O)NCCCCCC(=O)OCc2ccccc2)C(=O)c2ccccc2C1=O (stereo not given in full) : TGI at minimum 4 µM?
Solution: YES

Exercise: Evaluate OC1OC(c2ccc[nH]2)C(F)(F)C(F)(F)C1(F)F (stereo not given) : TGI at minimum 4 µM?
Solution: YES

Exercise: Evaluate CN1CCN(CCCOc2ccc3ncnc(Nc4ccc(Oc5cccc(C(F)(F)F)c5)c(Cl)c4)c3c2)CC1 : TGI at minimum 4 µM?
Solution: NO

Exercise: Evaluate O=C(/C=C\c1cccc2ccccc12)c1ccc(Br)cc1 : TGI at minimum 4 µM?
Solution: YES

Exercise: Evaluate CO/C=C/c1cc2c(cc1C(OC)OC)OCO2 : TGI at minimum 4 µM?
Solution: YES

Exercise: Evaluate COc1ccc(/C(Cl)=C(\C=O)c2cc(OC)c(OC)c(OC)c2)cc1OC : TGI at minimum 4 µM?
Solution: YES

Exercise: Evaluate CN(C)c1cccc(-c2cc(=O)c3cc4c(cc3[nH]2)OCO4)c1 : TGI at minimum 4 µM?
Solution: YES

Exercise: Evaluate N#C/C(=C\c1ccc(Cl)cc1)n1nnc2cc(F)c(F)cc21 : TGI at minimum 4 µM?
Solution: NO

Exercise: Evaluate C1=Cc2nc1c(-c1ccccc1)c1ccc([n-]1)c(-c1ccccc1)c1nc(c(-c3ccccc3)c3ccc([n-]3)c2-c2ccccc2)C=C1.[Zn+2] : TGI at minimum 4 µM?
Solution: YES

Exercise: Evaluate N#Cc1c(SCc2ccccc2)nc2[nH]c(=S)[nH]c(=S)c2c1-c1ccco1 : TGI at minimum 4 µM?
Solution: YES

Exercise: Evaluate Cc1ccc(-c2nc3nc(-c4ccc(Cl)cc4)nc(N4CCCNCC4)c3o2)cc1 : TGI at minimum 4 µM?
Solution: NO

Exercise: Evaluate C=C1C(=O)O[C@H]2[C@H]1CC/C(Cn1cc(Cn3ccc4cc(Cl)ccc43)nn1)=C\CC[C@@]1(C)O[C@@H]21 : TGI at minimum 4 µM?
Solution: NO

Exercise: Evaluate CC(C)CC(=O)OC[n+]1cccc(-c2c(COC(=O)NC(C)C)c(COC(=O)NC(C)C)c3n2CCC3)c1 : TGI at minimum 4 µM?
Solution: YES

Exercise: Evaluate CC(=O)OCCC[C@@H]1C(=C(C)C)CCC2[C@@]1(C)CC[C@@]1(C)C[C@](C)(CCC=C(C)C)CC[C@]21C (stereo not given in full) : TGI at minimum 4 µM?
Solution: YES
